FYI, the data here is from patent US20250084155A1.

- testedOn: T1, HSP70 (human HSP70; the antigen of the binning, humanization and variant binding assays) (human, UniProt P0DMV8 1-641, limits assumed)
- T1 construct: also called hu HSP70
- assayMethodText: BLI, anti-human Fc capture, antigen 100 nM
attributeMeasured: % Diss

h77A-1.72 (antibody, V domains shown, captured by anti-human Fc) VH: QIQLVQSGPEVKKPGASVKVSCKASGYIFTNYGMNWVRQAPGQGLEWMGWINTYTGETTYADDFKGRFTFTTDTSTTTVYMELRSLRSDDTAVYFCARYDHAMDYWGQGTLVTVSS VL: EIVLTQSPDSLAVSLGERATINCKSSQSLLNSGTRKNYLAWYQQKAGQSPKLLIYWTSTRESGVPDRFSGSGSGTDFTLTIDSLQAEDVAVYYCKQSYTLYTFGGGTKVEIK
31.5%
h77A-1.75 (antibody, V domains shown, captured by anti-human Fc) VH: QIQLVQSGVEVKKPGASVKVSCKASGYTFTNYGMNWVRQAPGQGLEWMGWINTYTGEPTYSDDFKGRFTFTTDTSTSTAYMEVRSLRSDDTAVYFCARYDHAMDYWGQGTLVTVSS VL: EIVLTQSPDSLAVSLGERATINCKSSQSLFNSGTRKNYLAWYQQKAGQSPKLLIYWTSTRESGVPDRFSGSGSGTDFTLSIDSLQAEDVAVYYCKQSYTLYTFGGGTKVEIK
5.34%
h77A-1.37 (antibody, V domains shown, captured by anti-human Fc) VH: QIQLVQSGAEVKKPGASVKVSCKASGYTFTKYGMNWVRQAPGQGLEWMGWINTYTGESTYADDFKGRFTFTTDTSTSTAYMELRSLRSDDTAVYFCARYDHVMDYWGQGTLVTVSS VL: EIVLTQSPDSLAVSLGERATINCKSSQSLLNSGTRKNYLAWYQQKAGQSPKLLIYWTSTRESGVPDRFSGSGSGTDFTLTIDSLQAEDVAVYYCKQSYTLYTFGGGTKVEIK
22.8%
